System: HGC-27 (Gastric Carcinoma)
Test: Bliss excess, mean over the matrix (fraction); higher = more synergy;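 further: after 72 h of two-drug dosing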
Assay Endpoint: Bliss excess
The response must contain the number and no unit.

// below: answered compounds
Compound	Study System	Bliss excess
CN(CCO)CC[C@H](CSc1ccccc1)Nc1ccc(S(=O)(=O)NC(=O)c2ccc(N3CCC([C@@H](O)c4ccccc4-c4ccc(Cl)cc4)CC3)cc2)cc1S(=O)(=O)C(F)(F)F [AZD4320] + Cn1cnc2c(F)c(Nc3ccc(Br)cc3Cl)c(C(=O)NOCCO)cc21 [Selumetinib] (first compound max 1 µM, 7x7, partner max 3 µM)	HGC-27 (Gastric Carcinoma)	0.0579
CC1(C)CCC(CN2CCN(c3ccc(C(=O)NS(=O)(=O)c4ccc(NCC5CCOCC5)c([N+](=O)[O-])c4)c(Oc4cnc5[nH]ccc5c4)c3)CC2)=C(c2ccc(Cl)cc2)C1 [Venetoclax] + Cc1cc2ncnn2cc1Nc1ncc2c(n1)n(C1CCOCC1)c(=O)n2C [AZD7648] (first compound max 1 µM, 7x7, partner max 10 µM)	HGC-27 (Gastric Carcinoma)	-0.0261

**Query** Which Bliss excess is listed for CN(CCO)CC[C@H](CSc1ccccc1)Nc1ccc(S(=O)(=O)NC(=O)c2ccc(N3CCC([C@@H](O)c4ccccc4-c4ccc(Cl)cc4)CC3)cc2)cc1S(=O)(=O)C(F)(F)F [AZD4320] + C[C@@H]1COCCN1C2=NC(=NC(=C2)C3(CC3)[S@](=N)(=O)C)C4=C5C=CNC5=NC=C4 [AZD6738] (first compound max 1 µM, 7x7, partner max 10 µM) ?
**Result** -0.0321

====

// reported Bliss excess per item
System: KYSE-450 (Esophageal Squamous Cell Carcinoma)
Assay: Bliss excess, mean over the matrix (fraction); higher = more synergy

// below: answered compounds
Compound	Study System	Measured Result
CC1(C)CCC(CN2CCN(c3ccc(C(=O)NS(=O)(=O)c4ccc(NCC5CCOCC5)c([N+](=O)[O-])c4)c(Oc4cnc5[nH]ccc5c4)c3)CC2)=C(c2ccc(Cl)cc2)C1 [Venetoclax] + C[C@@H]1COCCN1C2=NC(=NC(=C2)C3(CC3)[S@](=N)(=O)C)C4=C5C=CNC5=NC=C4 [AZD6738] (first compound max 1 µM, 7x7, partner max 10 µM)	KYSE-450 (Esophageal Squamous Cell Carcinoma)	-0.061
CC1(C)CCC(CN2CCN(c3ccc(C(=O)NS(=O)(=O)c4ccc(NCC5CCOCC5)c([N+](=O)[O-])c4)c(Oc4cnc5[nH]ccc5c4)c3)CC2)=C(c2ccc(Cl)cc2)C1 [Venetoclax] + COc1cc(Nc2ncc3c(n2)-c2ccc(Cl)cc2C(c2c(F)cccc2OC)=NC3)ccc1C(=O)O [Alisertib] (first compound max 1 µM, 7x7, partner max 10 µM)	KYSE-450 (Esophageal Squamous Cell Carcinoma)	0.007
C[C@@H](Nc1cc(F)cc(F)c1)c1cc(C(=O)N(C)C)cc2c(=O)cc(N3CCOCC3)oc12 [AZD8186] + CC(=O)c1c(C)c2cnc(Nc3ccc(N4CCNCC4)cn3)nc2n(C2CCCC2)c1=O [Palbociclib] (first compound max 10 µM, 7x7, partner max 10 µM)	KYSE-450 (Esophageal Squamous Cell Carcinoma)	-0.0404
C[C@@H](Oc1cc(-c2cnn(C3CCNCC3)c2)cnc1N)c1c(Cl)ccc(F)c1Cl [Crizotinib] + CC1=C(C(=CC=C1)Cl)NC(=O)C2=CN=C(S2)NC3=CC(=NC(=N3)C)N4CCN(CC4)CCO [Dasatinib] (first compound max 10 µM, 7x7, partner max 2 µM)	KYSE-450 (Esophageal Squamous Cell Carcinoma)	0.0276
CN(CCO)CC[C@H](CSc1ccccc1)Nc1ccc(S(=O)(=O)NC(=O)c2ccc(N3CCC([C@@H](O)c4ccccc4-c4ccc(Cl)cc4)CC3)cc2)cc1S(=O)(=O)C(F)(F)F [AZD4320] + CCN(CCO)CCCOc1ccc2c(Nc3cc(CC(=O)Nc4cccc(F)c4)[nH]n3)ncnc2c1 [AZD2811] (first compound max 1 µM, 7x7, partner max 1 µM)	KYSE-450 (Esophageal Squamous Cell Carcinoma)	-0.0273

**Query** Which Bliss excess is listed for CC1(C)CCC(CN2CCN(c3ccc(C(=O)NS(=O)(=O)c4ccc(NCC5CCOCC5)c([N+](=O)[O-])c4)c(Oc4cnc5[nH]ccc5c4)c3)CC2)=C(c2ccc(Cl)cc2)C1 [Venetoclax] + CCN(CCO)CCCOc1ccc2c(Nc3cc(CC(=O)Nc4cccc(F)c4)[nH]n3)ncnc2c1 [AZD2811] (first compound max 1 µM, 7x7, partner max 1 µM) ?
**Result** -0.0215

**Query** Which Bliss excess is listed for Cc1c2c(nn1C)CSCc1cc(n(C)n1)CSc1cc(c3ccccc3c1)OCCCc1c(C(=O)O)n(C)c3c-2c(Cl)ccc13 [AZD5991] + CC(=O)O[C@H]1C(=O)[C@@]2(C)[C@H]([C@H](OC(=O)c3ccccc3)[C@]3(O)C[C@H](OC(=O)[C@H](O)[C@@H](NC(=O)c4ccccc4)c4ccccc4)C(C)=C1C3(C)C)[C@]1(OC(C)=O)CO[C@@H]1C[C@@H]2O [Paclitaxel] (first compound max 1 µM, 7x7, partner max 3 µM) ?
**Result** 0.0363

**Query** Which Bliss excess is listed for COc1nnc2ccc(N3CCC(c4ccc(OCCN5CCN(C)C(=O)[C@H]5C)cc4)CC3)nn12 [AZD5153] + Cn1cnc2c(F)c(Nc3ccc(Br)cc3Cl)c(C(=O)NOCCO)cc21 [Selumetinib] (first compound max 1 µM, 7x7, partner max 10 µM) ?
**Result** 0.025

**Query** Which Bliss excess is listed for C[C@@H](Oc1cc(-c2cnn(C3CCNCC3)c2)cnc1N)c1c(Cl)ccc(F)c1Cl [Crizotinib] + Cn1cnc2c(F)c(Nc3ccc(Br)cc3Cl)c(C(=O)NOCCO)cc21 [Selumetinib] (first compound max 10 µM, 7x7, partner max 10 µM) ?
**Result** -0.0241

**Query** Which Bliss excess is listed for N#Cc1cnc(Nc2cc(NC[C@H]3CNCCO3)c(C(F)(F)F)cn2)cn1 [SRA737] + CCc1c2c(nc3ccc(O)cc13)-c1cc3c(c(=O)n1C2)COC(=O)[C@]3(O)CC [SN-38] (first compound max 10 µM, 7x7, partner max 0.3 µM) ?
**Result** 0.157

**Query** Which Bliss excess is listed for NC1(C(=O)N[C@@H](CCO)c2ccc(Cl)cc2)CCN(c2ncnc3[nH]ccc23)CC1 [Capivasertib] + Cn1cnc2c(F)c(Nc3ccc(Br)cc3Cl)c(C(=O)NOCCO)cc21 [Selumetinib] (first compound max 10 µM, 7x7, partner max 10 µM) ?
**Result** 0.0292

Data provenance is the supplement of paper PMC11061612.
